# credit: ChEMBL document CHEMBL4706705

ASSAY_PROCEDURE: AUC (0 to 8 hrs) in rat at 5 mg/kg, po by LC-MS analysis
Type: ADME, organism-based
Design: time < 8 hr, route oral, dose 5 mg/kg
RUN_PARAMETERS: in vivo
METRIC: AUC(0-t) at 8 h (ng·h/mL)

INSERT INTO results (structure_notation, reading) VALUES
  ('C=CC(=O)Nc1cc(Nc2nccc(-c3cn(C4CC4)c4ccccc34)n2)c(OC)cc1N(C)CCN(C)C', 4580);

====

EXPERIMENTAL_SYSTEM: Epidermal growth factor receptor (Homo sapiens, UniProt P00533, L858R/T790M)
Sequence (P00533 25-1210 T790M/L858R limits assumed): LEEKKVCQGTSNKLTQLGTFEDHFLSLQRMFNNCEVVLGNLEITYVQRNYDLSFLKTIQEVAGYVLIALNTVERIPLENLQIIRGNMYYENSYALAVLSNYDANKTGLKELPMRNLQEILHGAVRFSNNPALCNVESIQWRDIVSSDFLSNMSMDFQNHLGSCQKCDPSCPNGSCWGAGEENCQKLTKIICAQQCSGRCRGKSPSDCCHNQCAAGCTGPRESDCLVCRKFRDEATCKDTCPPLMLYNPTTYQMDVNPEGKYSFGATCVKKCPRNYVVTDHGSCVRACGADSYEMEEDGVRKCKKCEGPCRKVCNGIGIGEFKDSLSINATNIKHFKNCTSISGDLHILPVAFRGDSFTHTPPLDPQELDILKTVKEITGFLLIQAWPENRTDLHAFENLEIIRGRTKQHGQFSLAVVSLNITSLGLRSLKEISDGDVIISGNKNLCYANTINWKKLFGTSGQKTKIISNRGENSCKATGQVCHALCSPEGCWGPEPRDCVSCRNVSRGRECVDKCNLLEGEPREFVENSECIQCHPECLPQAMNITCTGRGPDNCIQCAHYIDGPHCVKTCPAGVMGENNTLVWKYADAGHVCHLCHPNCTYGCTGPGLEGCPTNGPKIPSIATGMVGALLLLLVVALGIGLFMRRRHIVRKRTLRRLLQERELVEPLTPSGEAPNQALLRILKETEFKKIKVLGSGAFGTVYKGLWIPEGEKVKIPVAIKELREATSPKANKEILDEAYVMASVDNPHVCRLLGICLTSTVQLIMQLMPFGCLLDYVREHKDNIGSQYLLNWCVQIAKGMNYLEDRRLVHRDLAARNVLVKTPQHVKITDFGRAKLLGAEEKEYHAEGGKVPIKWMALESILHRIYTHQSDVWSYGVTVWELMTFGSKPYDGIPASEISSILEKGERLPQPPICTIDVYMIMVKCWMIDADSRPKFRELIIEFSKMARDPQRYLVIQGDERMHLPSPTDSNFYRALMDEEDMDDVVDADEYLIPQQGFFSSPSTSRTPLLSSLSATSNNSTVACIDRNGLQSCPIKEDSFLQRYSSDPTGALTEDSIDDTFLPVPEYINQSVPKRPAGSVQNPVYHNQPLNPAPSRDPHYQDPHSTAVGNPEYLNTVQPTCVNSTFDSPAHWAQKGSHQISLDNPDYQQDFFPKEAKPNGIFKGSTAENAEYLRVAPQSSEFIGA
ASSAY_PROCEDURE: Inhibition of recombinant human N-terminal GST-tagged EGFR T790M/L858R double mutant using biotinylated TK peptide as substrate measured after 30 mins by HTRF assay
pIC50: −log10 of the molar value.
pIC50 below 9 gives rule not met; pIC50 at or above it gives rule met.

INSERT INTO results (structure_notation, class_name) VALUES
  ('C=CC(=O)Nc1cc(Nc2nccc(-c3cn(C4CC4)c4ccccc34)n2)c(OC)cc1N(C)CCN(C)C', 'rule met'),
  ('C=CC(=O)Nc1cc(Nc2nccc(-c3cn(C(C)=O)c4ccccc34)n2)c(OC)cc1N(C)CCN(C)C', 'rule not met');
